Target: 17-beta-hydroxysteroid dehydrogenase type 3 (Rattus norvegicus, UniProt O54939)
Sequence (O54939 whole entry): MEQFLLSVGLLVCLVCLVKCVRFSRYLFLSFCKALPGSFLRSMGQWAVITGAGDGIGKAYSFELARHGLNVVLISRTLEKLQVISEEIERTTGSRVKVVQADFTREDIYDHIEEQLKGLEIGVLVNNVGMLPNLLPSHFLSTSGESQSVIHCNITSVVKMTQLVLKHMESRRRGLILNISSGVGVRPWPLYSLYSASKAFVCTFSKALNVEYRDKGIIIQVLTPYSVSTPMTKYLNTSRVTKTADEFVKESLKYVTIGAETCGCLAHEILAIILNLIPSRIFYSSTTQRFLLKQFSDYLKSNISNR
property.name: IC50

# compound, result
rows = [
    ("C[C@]12CC[C@@]3(C[C@@H]1CC[C@@H]1[C@@H]2CC[C@]2(C)C(=O)CC[C@@H]12)CN(C(=O)c1ccc(C(F)(F)F)cc1)CC(=O)O3", "88 nM"),
    ("C[C@]12CCC(=O)C=C1CC[C@@H]1[C@@H]2CC[C@]2(C)C(=O)CC[C@@H]12 [ANDROSTENEDIONE]", "169 nM"),
    ("C[C@]12CC[C@@H](O)C[C@@H]1CC[C@@H]1[C@@H]2CC[C@]2(C)C(=O)CC[C@@H]12 [ANDROSTERONE]", "90 nM"),
    ("C[C@]12CC[C@@]3(C[C@@H]1CC[C@@H]1[C@@H]2CC[C@]2(C)C(=O)CC[C@@H]12)CN(S(=O)(=O)c1ccc(C(F)(F)F)cc1)CC(=O)O3", "28 nM"),
]

---

Biological target: UniProt:O54939
Sequence (whole entry): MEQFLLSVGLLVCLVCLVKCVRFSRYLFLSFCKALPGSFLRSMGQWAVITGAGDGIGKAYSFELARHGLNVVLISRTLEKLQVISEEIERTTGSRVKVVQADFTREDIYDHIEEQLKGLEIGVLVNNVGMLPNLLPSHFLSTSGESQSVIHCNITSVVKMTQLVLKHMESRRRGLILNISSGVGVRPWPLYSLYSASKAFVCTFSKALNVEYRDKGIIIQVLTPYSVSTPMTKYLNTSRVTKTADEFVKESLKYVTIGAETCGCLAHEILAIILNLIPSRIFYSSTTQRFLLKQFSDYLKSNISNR
Test: Inhibition of 17beta-HSD3 in rat testes microsomes using [14C]-4-androstene-3,17-dione as substrate measured based on 18% of initial enzyme transformation at 0.1 uM after 2 hrs
Conditions: Testis

# molecule, assay.system, unit.abbrev, inhibition
data = [
    ("COC(=O)CN1C[C@]2(CC[C@@]3(C)[C@@H](CC[C@@H]4[C@@H]3CC[C@]3(C)C(=O)CC[C@@H]43)C2)OC1=O", "UniProt:O54939", "%", 9),
    ("C[C@@H]1CN(S(=O)(=O)c2ccccc2C(F)(F)F)[C@@H](C)CN1C[C@@]1(O)CC[C@@]2(C)[C@@H](CC[C@@H]3[C@@H]2CC[C@]2(C)C(=O)CC[C@@H]32)C1", "UniProt:O54939", "%", 43.7),
    ("CC(C)C[C@H]1C(=O)O[C@@]2(CC[C@@]3(C)[C@@H](CC[C@@H]4[C@@H]3CC[C@]3(C)C(=O)CC[C@@H]43)C2)CN1Cc1ccccc1", "UniProt:O54939", "%", 62.9),
    ("C[C@]12CC[C@@]3(C[C@@H]1CC[C@@H]1[C@@H]2CC[C@]2(C)C(=O)CC[C@@H]12)CN(CC(CN1CCOCC1)OC(=O)C1CCCCC1)C(=O)O3 (stereo partly specified)", "UniProt:O54939", "%", 51.5),
    ("O=C1OC2(CCCCC2)CN(Cc2cn(Cc3ccccc3)nn2)[C@H]1Cc1ccccc1", "UniProt:O54939", "%", 9.4),
    ("C=CCN1CC(=O)O[C@@]2(CC[C@@]3(C)[C@@H](CC[C@@H]4[C@@H]3CC[C@]3(C)C(=O)CC[C@@H]43)C2)C1", "UniProt:O54939", "%", 48.6),
]

---

molecular target: 17-beta-hydroxysteroid dehydrogenase type 3 (Rattus norvegicus) (UniProt O54939); test: Inhibition of 17beta-HSD3 in rat testes microsomes using [14C]-4-androstene-3,17-dione as substrate measured based on 4% of initial enzyme transformation at 10 uM after 2 hrs; details: Testis

# molecule, unit.abbrev, inhibition
records = [
    ("COC(=O)[C@H](Cc1ccccc1)N1C[C@]2(CC[C@@]3(C)[C@@H](CC[C@@H]4[C@@H]3CC[C@]3(C)C(=O)CC[C@@H]43)C2)OC1=O", "%", 87.7),
    ("C[C@]12CC[C@@]3(C[C@@H]1CC[C@@H]1[C@@H]2CC[C@]2(C)C(=O)CC[C@@H]12)CN(CC(CN1CCOCC1)OC(=O)C1CCCCC1)C(=O)O3 (stereo partly drawn)", "%", 97.2),
    ("C[C@]12CC[C@@]3(C[C@@H]1CC[C@@H]1[C@@H]2CC[C@]2(C)C(=O)CC[C@@H]12)CN(Cc1ccccc1)[C@@H](Cc1ccccc1)C(=O)O3", "%", 83.6),
]

---

target: 17-beta-hydroxysteroid dehydrogenase type 3 (Rattus norvegicus) (UniProt O54939); assay: Inhibition of 17beta-HSD3 in rat testes microsomes using [14C]-4-androstene-3,17-dione as substrate measured based on 18% of initial enzyme transformation at 1 uM after 2 hrs; settings: Testis
Listing: inhibition of selected compounds

# compound, assay.system, unit.abbrev, inhibition
data = [
    ("C[C@]12CC[C@@]3(C[C@@H]1CC[C@@H]1[C@@H]2CC[C@]2(C)C(=O)CC[C@@H]12)CN(Cc1cn(Cc2ccccc2)nn1)CC(=O)O3", "17-beta-hydroxysteroid dehydrogenase type 3 (Rattus norvegicus) (UniProt O54939)", "%", 85.3),
    ("C[C@]12CC[C@@]3(C[C@@H]1CC[C@@H]1[C@@H]2CC[C@]2(C)C(=O)CC[C@@H]12)CN(Cc1cc(C(F)(F)F)cc(C(F)(F)F)c1)CC(=O)O3", "17-beta-hydroxysteroid dehydrogenase type 3 (Rattus norvegicus) (UniProt O54939)", "%", 94.4),
    ("C[C@]12CC[C@@]3(C[C@@H]1CC[C@@H]1[C@@H]2CC[C@]2(C)C(=O)CC[C@@H]12)CN(S(=O)(=O)c1ccc(C(F)(F)F)cc1)CC(=O)O3", "17-beta-hydroxysteroid dehydrogenase type 3 (Rattus norvegicus) (UniProt O54939)", "%", 85.1),
    ("C[C@]12CC[C@@]3(C[C@@H]1CC[C@@H]1[C@@H]2CC[C@]2(C)C(=O)CC[C@@H]12)CN(Cc1ccccc1C(F)(F)F)CC(=O)O3", "17-beta-hydroxysteroid dehydrogenase type 3 (Rattus norvegicus) (UniProt O54939)", "%", 83),
    ("O=C1OC2(CCCCC2)CN(Cc2cn(Cc3ccccc3)nn2)[C@H]1Cc1ccccc1", "17-beta-hydroxysteroid dehydrogenase type 3 (Rattus norvegicus) (UniProt O54939)", "%", 13.3),
    ("CC(C)C[C@@H]1NC[C@]2(CC[C@@]3(C)[C@@H](CC[C@@H]4[C@@H]3CC[C@]3(C)C(=O)CC[C@@H]43)C2)OC1=O", "17-beta-hydroxysteroid dehydrogenase type 3 (Rattus norvegicus) (UniProt O54939)", "%", 84.9),
    ("C[C@]12CC[C@@]3(C[C@@H]1CC[C@@H]1[C@@H]2CC[C@]2(C)C(=O)CC[C@@H]12)CN(Cc1cccc2ccccc12)CC(=O)O3", "17-beta-hydroxysteroid dehydrogenase type 3 (Rattus norvegicus) (UniProt O54939)", "%", 94.5),
    ("C[C@]12CC[C@@]3(C[C@@H]1CC[C@@H]1[C@@H]2CC[C@]2(C)C(=O)CC[C@@H]12)CN(Cc1ccc(I)cc1)CC(=O)O3", "17-beta-hydroxysteroid dehydrogenase type 3 (Rattus norvegicus) (UniProt O54939)", "%", 95.3),
    ("C=CCN1CC(=O)O[C@@]2(CC[C@@]3(C)[C@@H](CC[C@@H]4[C@@H]3CC[C@]3(C)C(=O)CC[C@@H]43)C2)C1", "17-beta-hydroxysteroid dehydrogenase type 3 (Rattus norvegicus) (UniProt O54939)", "%", 89),
    ("C[C@]12CC[C@@]3(C[C@@H]1CC[C@@H]1[C@@H]2CC[C@]2(C)C(=O)CC[C@@H]12)CN(Cc1ccccc1)CC(=O)O3", "17-beta-hydroxysteroid dehydrogenase type 3 (Rattus norvegicus) (UniProt O54939)", "%", 89.2),
    ("C[C@]12CC[C@@]3(C[C@@H]1CC[C@@H]1[C@@H]2CC[C@]2(C)C(=O)CC[C@@H]12)CN(CC(CN1CCOCC1)OC(=O)C1CCCCC1)C(=O)O3 (stereo not given in full)", "17-beta-hydroxysteroid dehydrogenase type 3 (Rattus norvegicus) (UniProt O54939)", "%", 93.1),
    ("C[C@]12CC[C@@]3(C[C@@H]1CC[C@@H]1[C@@H]2CC[C@]2(C)C(=O)CC[C@@H]12)CN(Cc1ccc(C(F)(F)F)cc1C(F)(F)F)CC(=O)O3", "17-beta-hydroxysteroid dehydrogenase type 3 (Rattus norvegicus) (UniProt O54939)", "%", 89.6),
    ("C#CCN1CC2(CCCCC2)OC(=O)[C@@H]1Cc1ccccc1", "17-beta-hydroxysteroid dehydrogenase type 3 (Rattus norvegicus) (UniProt O54939)", "%", 0),
    ("C#CCN1CC(=O)O[C@@]2(CC[C@@]3(C)[C@@H](CC[C@@H]4[C@@H]3CC[C@]3(C)C(=O)CC[C@@H]43)C2)C1", "17-beta-hydroxysteroid dehydrogenase type 3 (Rattus norvegicus) (UniProt O54939)", "%", 80.7),
    ("C[C@]12CC[C@@]3(C[C@@H]1CC[C@@H]1[C@@H]2CC[C@]2(C)C(=O)CC[C@@H]12)CN(C(=O)c1ccc(C(F)(F)F)cc1)CC(=O)O3", "17-beta-hydroxysteroid dehydrogenase type 3 (Rattus norvegicus) (UniProt O54939)", "%", 87.1),
]
